Reported logP values for a set of compounds
protocol-text: Lipophilicity, log P of the compound
Format: physicochemical
reported-conditions: octanol/water

[
  {
    "compound": "CC(C)CC(NC(=O)OCC1c2ccccc2-c2ccccc21)C(=O)O/N=C1\\c2ccccc2-c2c1c(N1CCN(c3ccccn3)CC1)nc1ccc(Br)cc21 (centres undefined)",
    "logP": 8.3
  },
  {
    "compound": "O=C1c2ccccc2-c2c1c(Nc1ccncc1)nc1ccc(Br)cc21",
    "logP": 4.64
  },
  {
    "compound": "O/N=C1\\c2ccccc2-c2c1c(N1CCN(c3ccccn3)CC1)nc1ccc(Br)cc21",
    "logP": 6.4
  },
  {
    "compound": "COc1cccc(NC(=S)Nc2ccc3nc(Oc4ccc(F)cc4C(C)O)c(Cc4ccccc4)cc3c2)c1 (centres undefined)",
    "logP": 7.86
  },
  {
    "compound": "COc1nc2ccc(Br)cc2c2c1C(C)(OC(=O)N(C)C)c1ccccc1-2 (centres undefined)",
    "logP": 4.91
  },
  {
    "compound": "COc1nc2ccc(Br)cc2c2c1C(C)(OCC(O)Cn1ccc(-c3cccc(C(F)(F)F)c3)n1)c1ccccc1-2 (centres undefined)",
    "logP": 7.5
  }
]

Query: Identify measured logP corresponding to COc1ccccc1NC(=O)NCC(O)COC1(C)c2ccccc2-c2c1c(OC)nc1ccc(Br)cc21 (centres undefined)
Result: 4.84

Query: Identify measured logP corresponding to CC(O)c1cc(F)ccc1Oc1nc2ccc(NS(=O)(=O)c3cccc(C(F)(F)F)c3)cc2cc1Cc1ccccc1 (centres undefined)
Result: 7.69

Query: Identify measured logP corresponding to COc1nc2ccc(Br)cc2cc1C(c1ccccc1)n1ccnc1 (centres undefined)
Result: 4.52
